# Tested on: Danio rerio larvae (5 dpf)
# Procedure text: optomotor response to green moving lines, difference vs DMSO (percentage points (treated minus DMSO)); higher = more of the behaviour than the DMSO vehicle control
# Conditions used: 10 µM; exposure time: 3 h pre-incubation + 3 h imaging
Where a name gives a salt, the structure may show the parent alone.
Observable: optomotor response to green moving lines
Answer with a bare number; do not write a unit.

Q: Can you look up the measured optomotor response to green moving lines of CC(C)OC(=O)C(C)(C)Oc1ccc(C(=O)c2ccc(Cl)cc2)cc1 [Fenofibrate] for me?
Ans: 8.84

Q: Please give the result for COc1cc([C@@H]2c3cc4c(cc3[C@@H](O[C@@H]3O[C@@H]5CO[C@@H](C)O[C@H]5[C@H](O)[C@H]3O)[C@H]3COC(=O)[C@H]23)OCO4)cc(OC)c1O [Etoposide] too.
Ans: -0.812

Q: Further, for Cc1cc2c(s1)Nc1ccccc1N=C2N1CCN(C)CC1 [Olanzapine] ?
Ans: 8.6

Q: What would you report for CCOc1ccccc1OCCN[C@H](C)Cc1ccc(OC)c(S(N)(=O)=O)c1 [Tamsulosin hydrochloride] ?
Ans: -11.6

Q: And the next one, CC(=O)Nc1ccc(O)cc1 [Acetaminophen] ?
Ans: 8.32
